Molecular target: human mGluR2 (Homo sapiens, UniProt Q14416)
Construct: expressed in transfected cells; host or cells: CHO cells (membranes)
Sequence (Q14416 19-872): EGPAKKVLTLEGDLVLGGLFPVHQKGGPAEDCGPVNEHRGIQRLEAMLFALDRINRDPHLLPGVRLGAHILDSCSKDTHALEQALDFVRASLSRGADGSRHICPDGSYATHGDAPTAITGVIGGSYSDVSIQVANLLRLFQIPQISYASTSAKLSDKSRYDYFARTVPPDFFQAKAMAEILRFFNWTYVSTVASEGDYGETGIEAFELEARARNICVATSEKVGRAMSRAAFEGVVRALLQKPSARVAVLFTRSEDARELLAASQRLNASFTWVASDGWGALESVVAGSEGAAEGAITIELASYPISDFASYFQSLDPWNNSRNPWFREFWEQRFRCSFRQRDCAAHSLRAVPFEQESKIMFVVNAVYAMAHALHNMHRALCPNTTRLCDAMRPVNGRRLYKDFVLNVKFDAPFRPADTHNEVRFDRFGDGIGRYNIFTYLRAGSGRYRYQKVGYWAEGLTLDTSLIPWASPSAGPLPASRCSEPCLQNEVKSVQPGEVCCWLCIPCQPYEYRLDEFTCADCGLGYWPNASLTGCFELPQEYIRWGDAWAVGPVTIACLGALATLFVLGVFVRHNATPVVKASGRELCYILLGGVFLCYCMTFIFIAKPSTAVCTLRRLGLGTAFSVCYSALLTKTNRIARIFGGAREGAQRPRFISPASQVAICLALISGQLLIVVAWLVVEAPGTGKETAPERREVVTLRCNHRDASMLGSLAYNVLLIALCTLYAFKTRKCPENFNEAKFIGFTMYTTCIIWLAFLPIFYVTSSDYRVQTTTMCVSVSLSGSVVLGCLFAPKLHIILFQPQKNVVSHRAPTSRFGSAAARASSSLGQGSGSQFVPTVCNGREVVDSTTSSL
Assay: [35S]GTPγS binding assay (PAM assay)
Format: biochemical
Details: compounds of formula (I'); protocol of section D ([35S]GTPγS, human mGluR2, glutamate EC25); read-out: pEC50 (see section D for protocol) (converted)
Output Fulfilled for records whose EC50 is lower than 500 nM, Not fulfilled for records at or above 500 nM.

Inquiry: In plain terms, does CCCCn1ccc(N2CCC(O)(c3ccc(Cl)cc3)CC2)c(C#N)c1=O come in under 500 nM for EC50?
Reply text: Fulfilled

Inquiry: Also CCCCn1ccc(N2CCC(O)(c3ccc(F)cc3)CC2)c(C#N)c1=O , if possible.
Reply text: Fulfilled

Inquiry: Also CCCCn1ccc(N2CCC(O)(c3cccc(Cl)c3)CC2)c(C#N)c1=O , if possible.
Reply text: Fulfilled

Inquiry: Also N#Cc1c(N2CCC(O)(c3ccccc3)CC2)ccn(CC2CC2)c1=O , if possible.
Reply text: Not fulfilled
